- Test system: MCF7
- Test protocol: normalised growth rate inhibition (GR value) relative to DMSO control (GR (1 = untreated growth, 0 = cytostasis, <0 = cytotoxic)); higher = less growth inhibition
- Conditions used: 10 µM; 72 h

# Molecule, normalised growth rate inhibition
records = [
    ("N#CCNC(=O)c1ccc(-c2ccnc(Nc3ccc(N4CCOCC4)cc3)n2)cc1 [CYT387]", 0.0654),
    ("CNC(=O)Nc1ccc(-c2nc(N3CC4CCC(C3)O4)c3cnn(C4CCC5(CC4)OCCO5)c3n2)cc1", -0.00137),
    ("COc1cc(OC)cc(-c2ccc3ncc4ccc(=O)n(-c5ccc(N6CCNCC6)c(C(F)(F)F)c5)c4c3c2)c1 [JW-7-24-1]", -0.135),
    ("O=C(NOCC1CC1)c1ccc(F)c(F)c1Nc1ccc(I)cc1Cl", 0.344),
]

Reference source: the supplement of paper PMC5662764
